Assignment: determine reported pIC50 for the given compounds.
- experimental-target: Full-length human PRMT1 isoform 1 (Homo sapiens)
- Construct: GST-tagged PRMT1
- Sequence (Q99873 with tags, fused parts or gaps): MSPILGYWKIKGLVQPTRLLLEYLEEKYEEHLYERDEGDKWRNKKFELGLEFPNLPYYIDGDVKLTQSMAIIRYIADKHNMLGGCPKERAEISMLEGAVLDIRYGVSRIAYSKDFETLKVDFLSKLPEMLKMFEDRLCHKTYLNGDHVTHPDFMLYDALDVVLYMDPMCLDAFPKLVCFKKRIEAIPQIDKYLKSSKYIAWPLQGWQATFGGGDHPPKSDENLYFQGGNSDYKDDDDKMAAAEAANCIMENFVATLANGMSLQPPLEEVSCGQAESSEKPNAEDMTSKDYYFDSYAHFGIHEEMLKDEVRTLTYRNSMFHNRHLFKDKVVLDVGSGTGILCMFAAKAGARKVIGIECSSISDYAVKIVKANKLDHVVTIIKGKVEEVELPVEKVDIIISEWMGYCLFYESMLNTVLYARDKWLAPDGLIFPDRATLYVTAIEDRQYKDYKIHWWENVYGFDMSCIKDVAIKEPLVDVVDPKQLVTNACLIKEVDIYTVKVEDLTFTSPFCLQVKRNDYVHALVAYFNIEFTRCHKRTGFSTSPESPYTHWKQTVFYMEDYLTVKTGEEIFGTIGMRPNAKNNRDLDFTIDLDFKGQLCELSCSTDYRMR
- protocol-details: PRMT1 biochemical assay (3H-SAM Flashplate, peptide substrate)
- Text: General Materials. […] General Procedure for PRMT1 Enzyme Assays on Peptide Substrates. […] The plates were then read in a PerkinElmer TopCount plate reader to measure the quantity of ^3H-labeled peptide bound to the Flashplate surface, measured as disintegrations per minute (dpm) or alternatively, referred to as counts per minute (cpm). […]
pIC50: −log10 of the molar value.

Form: item CC(C)Oc1ccc(-c2c(CN(C)CCN)cnn2C)cc1 [Compound 177] ; test system Full-length human PRMT1 isoform 1 (Homo sapiens); pIC50: > 7.00

# lookup: CNCCN(C)Cc1n[nH]cc1-c1cc(C(C)C)cc(C(C)C)c1 [Compound 242] on Full-length human PRMT1 isoform 1 (Homo sapiens), pIC50 = 6.00 to 7.00

Entry CN(CCN)Cc1c[nH]nc1-c1ccc(OC2CC2)cc1 [Compound 114] , tested on Full-length human PRMT1 isoform 1 (Homo sapiens), has a reported pIC50 of > 7.00

With Full-length human PRMT1 isoform 1 (Homo sapiens) as the test system, CN(CCN)Cc1c[nH]nc1-c1ccc(Cl)cc1Cl [Compound 86] showed pIC50 of > 7.00

Record CNCCN(C)Cc1c[nH]nc1-c1cccc(OC)c1 [Compound 24] ; system Full-length human PRMT1 isoform 1 (Homo sapiens); pIC50 = > 7.00

Tested on Full-length human PRMT1 isoform 1 (Homo sapiens), the item CNCCN(C)Cc1c[nH]nc1-c1ccc(OC)cc1OC [Compound 55] showed pIC50 equal to 6.00 to 7.00

Query CN(CCN)Cc1n[nH]cc1-c1ccc(C#N)cc1 [Compound 100] on Full-length human PRMT1 isoform 1 (Homo sapiens); pIC50 returned: > 7.00

Entry COc1ccc(F)cc1-c1n[nH]cc1CN(C)CCN [Compound 160] ; assay system Full-length human PRMT1 isoform 1 (Homo sapiens); pIC50 recorded at 6.00 to 7.00

Measured on Full-length human PRMT1 isoform 1 (Homo sapiens), COc1ccc(-c2n[nH]cc2CN(C)CCN)c(C(F)(F)F)c1 [Compound 154] has a documented pIC50 of 6.00 to 7.00

Result for CNCCN(C)Cc1cn(CC(=O)OC)nc1-c1ccc(OC(C)C)cc1 [Compound 248] , tested on Full-length human PRMT1 isoform 1 (Homo sapiens), pIC50: 6.00 to 7.00

Let me check: CNCCN(C)Cc1cn(Cc2cccnc2)nc1-c1ccc(OC(C)C)cc1 [Compound 246] , system Full-length human PRMT1 isoform 1 (Homo sapiens), measured pIC50 is > 7.00

Sample CC(C)CN1C(=O)COc2ccc(-c3n[nH]cc3CN(C)CCN)cc21 [Compound 191] , system: Full-length human PRMT1 isoform 1 (Homo sapiens). Its pIC50 is 6.00 to 7.00

For the compound CNCCN(C)Cc1c[nH]nc1-c1ccc(Oc2ccccc2)c(C#N)c1 [Compound 221] , the measured pIC50 on Full-length human PRMT1 isoform 1 (Homo sapiens) was > 7.00

Case CNCCN(C)Cc1c[nH]nc1-c1ccc(Oc2ccccc2)cc1 [Compound 37] , Full-length human PRMT1 isoform 1 (Homo sapiens), pIC50 recorded as > 7.00

Log: Full-length human PRMT1 isoform 1 (Homo sapiens), compound CNCCN(C)Cc1c[nH]nc1-c1ccc(F)c(F)c1 [Compound 51] , pIC50 = > 7.00

Result for CC(C)Oc1ccc(-c2c[nH]nc2CN(C)CCN)cc1F [Compound 144] , tested on Full-length human PRMT1 isoform 1 (Homo sapiens), pIC50: > 7.00

CN(CCN)Cc1cnn(C)c1-c1ccc(F)cc1 [Compound 4] tested on Full-length human PRMT1 isoform 1 (Homo sapiens) gave pIC50: 6.00 to 7.00

The measured pIC50 that Cc1cc(-c2n[nH]cc2CN(C)CCN)cc(C)c1OC(C)C [Compound 199] showed for Full-length human PRMT1 isoform 1 (Homo sapiens) is > 7.00

Entry Cc1ccc(-c2n[nH]cc2CN(C)CCN)cc1Cl [Compound 126] , tested on Full-length human PRMT1 isoform 1 (Homo sapiens), has a reported pIC50 of > 7.00

Full-length human PRMT1 isoform 1 (Homo sapiens) pIC50 of CN(CCN)Cc1c[nH]nc1-c1ccc(OCCCO)cc1 [Compound 195] is > 7.00

Assay Full-length human PRMT1 isoform 1 (Homo sapiens), sample CN(CCN)Cc1c[nH]nc1-c1ccc(Cl)c(F)c1 [Compound 118] , pIC50 read: > 7.00

Entry CNCCN(C)Cc1cn[nH]c1-c1ccc(C#N)cc1 [Compound 17] , tested on Full-length human PRMT1 isoform 1 (Homo sapiens), has a reported pIC50 of > 7.00

Considering COc1ccc(-c2n[nH]cc2CN(C)CCN)c(F)c1 [Compound 107] , its pIC50 with Full-length human PRMT1 isoform 1 (Homo sapiens) was recorded as > 7.00

Tested system Full-length human PRMT1 isoform 1 (Homo sapiens); pIC50 recorded for CN(CCN)Cc1c[nH]nc1-c1ccc(C(F)(F)F)cc1Cl [Compound 135] was > 7.00

Query CN(CCN)Cc1c[nH]nc1-c1ccc2c(c1)N(C)C(=O)CO2 [Compound 196] on Full-length human PRMT1 isoform 1 (Homo sapiens); pIC50 returned: 6.00 to 7.00

Full-length human PRMT1 isoform 1 (Homo sapiens) data for CNCCN(C)Cc1n[nH]cc1-c1ccc(OC(C)C)c(F)c1 [Compound 210] ; its pIC50: > 7.00

Simply: CN(CCN)Cc1n[nH]cc1-c1ccc(OC(F)(F)F)cc1 [Compound 105] , Full-length human PRMT1 isoform 1 (Homo sapiens), pIC50 = > 7.00

Lab note: compound CN(CCN)Cc1c[nH]nc1-c1cc(C#N)ccc1Cl [Compound 147] tested on Full-length human PRMT1 isoform 1 (Homo sapiens); recorded pIC50 was 5.52 to 6.00

Query CN(CCN)Cc1c[nH]nc1-c1ccc(C(F)(F)F)c(Cl)c1 [Compound 117] on Full-length human PRMT1 isoform 1 (Homo sapiens); pIC50 returned: > 7.00

So the reported pIC50 for CCCc1ccc(-c2n[nH]cc2CN(C)CCNC)cc1 [Compound 20] , on Full-length human PRMT1 isoform 1 (Homo sapiens), turned out to be > 7.00

Item: CNCCN(C)Cc1c[nH]nc1-c1ccc(CO)cc1 [Compound 28] | System: Full-length human PRMT1 isoform 1 (Homo sapiens) | pIC50: > 7.00

Response field pIC50 (Full-length human PRMT1 isoform 1 (Homo sapiens)) for item COc1ccc(Cl)cc1-c1n[nH]cc1CN(C)CCN [Compound 157] : 5.52 to 6.00

Result for COc1ccc(-c2n[nH]cc2CN(C)CCN)cc1F [Compound 134] , tested on Full-length human PRMT1 isoform 1 (Homo sapiens), pIC50: > 7.00

// compound Cc1cc(F)ccc1-c1n[nH]cc1CN(C)CCN [Compound 152] , assay Full-length human PRMT1 isoform 1 (Homo sapiens), pIC50 value: > 7.00

Log: Full-length human PRMT1 isoform 1 (Homo sapiens), compound CNCCN(C)Cc1n[nH]cc1-c1cc(CC(C)C)cc(CC(C)C)c1 [Compound 271] , pIC50 = > 7.00

With Full-length human PRMT1 isoform 1 (Homo sapiens) as the test system, CN(CCN)Cc1c[nH]nc1-c1ccc(C(C)(C)C)cc1 [Compound 74] showed pIC50 of > 7.00

// returns pIC50 for CNCCN(C)Cc1c[nH]nc1-c1ccc(F)cc1 [Compound 2] with Full-length human PRMT1 isoform 1 (Homo sapiens); value = > 7.00

Simply: CN(CCN)Cc1n[nH]cc1-c1ccc(Oc2ccccc2)cc1 [Compound 203] , Full-length human PRMT1 isoform 1 (Homo sapiens), pIC50 = > 7.00

Item CCN(CCN)Cc1c[nH]nc1-c1ccc(F)cc1 [Compound 62] ; assay system Full-length human PRMT1 isoform 1 (Homo sapiens); pIC50 reported as > 7.00

So the reported pIC50 for CNCCN(C)Cc1c[nH]nc1-c1cc(C(C)C)cc(C(C)C)c1 [Compound 229] , on Full-length human PRMT1 isoform 1 (Homo sapiens), turned out to be > 7.00
